# target of assay: Potassium voltage-gated channel subfamily KQT member 1 (Homo sapiens)
# measurement description: KCNQ1 potassium channel potentiators, confirmation, FluxOR thallium flux, CHO cells, duplicates (AID 493007)
# measurement setup: KCNQ1 cell line, FluxOR thallium flux fluorescence, at 10 µM, % of reference activator effect, buffer zero
Activity calls are given as the source filed them.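 How the source made its calls: active means potentiation averaged over duplicate wells exceeding buffer-only control mean by more than 3 SD; inactive means the rest.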
Entry note: the call must match one of YES for active, NO for inactive

The examples below pair each entry with its known result.
{"smiles data": "Cc1cc(C(=O)CSc2nnc(N)s2)c(C)n1C1CC1", "classification": "NO"}
{"smiles data": "COc1ccc(NC(=O)C(=O)NNC(=O)c2cccs2)c(OC)c1", "classification": "YES"}
{"smiles data": "COc1cc(O)c2c(=O)c(-c3ccc(O[C@@H]4O[C@H](CO)[C@@H](O)[C@H](O)[C@H]4O)cc3)coc2c1", "classification": "NO"}
{"smiles data": "OCCNCc1cc(Br)ccc1OCc1ccccc1Cl", "classification": "NO"}

Input line: What classification did `CCOC(=O)C1=C(CC)Nc2ccccc2N=C1NC(=O)CCNC(C)=O` end up with in this test?
Output line: NO
